TEST_NAME: chemical genetic growth profiling, strain panel (AID 1159580);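 also: tested at 20 µM; growth read once vehicle control cultures reached saturation at 30 °C; 1 = growth at the plate median or of vehicle wells; lower values mean less growth of the strain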
REPORTED_CONDITIONS: S. cerevisiae deletion strains, growth OD, locus YJR075W, strain HOC1, active compounds read low
Hit rate of the full screen: of about 5,500 compounds, about 2,000 (36%) were called active. Not shown: some 18% with an inconclusive outcome. Some of the results follow.
Please respond with reported normalized growth for every item in the list.
Keep the answer to the number alone.

-- ask normalized growth lookup needed for C[CH2][Hg][S]c1ccccc1C(=O)O , thanks.
-- reply 0.0601

-- ask normalized growth lookup needed for CC(C)(C)NC(=O)N1CCN(c2nc3ccc(Cl)cc3s2)CC1 , thanks.
-- reply 0.981

-- ask normalized growth lookup needed for O[Si](CCCN1CCCCC1)(c1ccc(F)cc1)C1CCCCC1 (stereo unspecified) , thanks.
-- reply 1.02

-- ask normalized growth lookup needed for NC[C@@H]1O[C@H](O[C@@H]2[C@@H](CO)OC(O[C@@H]3[C@@H](O)[C@H](N)C[C@H](N)[C@H]3OC3O[C@H](CN)[C@@H](O)[C@H](O)[C@H]3N)[C@@H]2O)[C@H](N)[C@@H](O)[C@@H]1O (stereo partly specified) , thanks.
-- reply 1.02

-- ask normalized growth lookup needed for C=C1CC[C@H](O)C/C1=C/C=C1\CCC[C@]2(C)C([C@H](C)/C=C/[C@H](C)C(C)C)CC[C@@H]12 (stereo partly specified) , thanks.
-- reply 0.979

-- ask normalized growth lookup needed for FC(F)(F)c1ccnc(-n2ccc(-c3cccs3)n2)n1 , thanks.
-- reply 0.964

-- ask normalized growth lookup needed for CN1Cc2c(ccc3c2OCO3)C2C(O)Cc3cc4c(cc3C21)OCO4 (stereo unspecified) , thanks.
-- reply 0.983

-- ask normalized growth lookup needed for CCCCCCCCCCCCCCSCC(=O)O , thanks.
-- reply 0.99

-- ask normalized growth lookup needed for O=C(/C=C/C=C/c1ccc2c(c1)OCO2)N1CCCCC1 , thanks.
-- reply 0.9

-- ask normalized growth lookup needed for O=C(CSc1ccc(C(F)(F)F)cn1)N1CCc2c([nH]c3ccccc23)C1C(F)(F)F (stereo unspecified) , thanks.
-- reply 0.965

-- ask normalized growth lookup needed for Cc1c(O)cc(O)c2c(=O)c(-c3ccc(O)cc3)coc12 , thanks.
-- reply 0.99

-- ask normalized growth lookup needed for CCCC(C)(SCC(=O)O)SCC(=O)O , thanks.
-- reply 1.04

-- ask normalized growth lookup needed for CC(=O)O[C@]1(C(C)=O)CCC2C3C=C(C)C4=CC(=O)CCC4(C)C3CCC21C (stereo partly specified) , thanks.
-- reply 0.952

-- ask normalized growth lookup needed for O=C(O)C1c2ccccc2Oc2ccccc21 , thanks.
-- reply 0.975

-- ask normalized growth lookup needed for CC(C)[N+](C)(CCOC(=O)C1c2ccccc2Oc2ccccc21)C(C)C , thanks.
-- reply 1.02

-- ask normalized growth lookup needed for COc1cc2c(cc1OC)C(=O)C(CC1CCN(Cc3ccccc3)CC1)C2 (stereo unspecified) , thanks.
-- reply 0.778

-- ask normalized growth lookup needed for Cn1cc[nH]c1=S , thanks.
-- reply 0.997

-- ask normalized growth lookup needed for N=c1nc(N2CCCCC2)cc(N)n1O , thanks.
-- reply 1

-- ask normalized growth lookup needed for COc1ccc(CC2c3cc(OC)c(OC)cc3CCN2C)cc1OC (stereo unspecified) , thanks.
-- reply 0.926

-- ask normalized growth lookup needed for NC(=O)c1ncn([C@@H]2O[C@H](CO)[C@@H](O)[C@H]2O)c1O , thanks.
-- reply 0.974

-- ask normalized growth lookup needed for COC(=O)COc1ccc(Cl)cc1Cl , thanks.
-- reply 1.01

-- ask normalized growth lookup needed for CCCCCCCCCCCCC/C=C/[C@@H](O)[C@@H](N)CO , thanks.
-- reply 0.644

-- ask normalized growth lookup needed for Oc1c(Cl)c(Cl)c(Cl)c(Cl)c1Cl , thanks.
-- reply 0.71

-- ask normalized growth lookup needed for O[C@H]1C=C2CCN3Cc4cc5c(cc4C(C23)[C@@H]1O)OCO5 (stereo partly specified) , thanks.
-- reply 0.53

-- ask normalized growth lookup needed for Cc1ccc2c(c1)CC[C@H]1CC(=O)CC[C@]21C , thanks.
-- reply 1

-- ask normalized growth lookup needed for CCC(C(N)=O)c1ccccc1 (stereo unspecified) , thanks.
-- reply 1.01

-- ask normalized growth lookup needed for O=C(c1ccccc1)C1CCN(c2ccc(C(F)(F)F)cc2[N+](=O)[O-])CC1 , thanks.
-- reply 0.946

-- ask normalized growth lookup needed for Cc1c(Cl)cccc1SCC(=O)O , thanks.
-- reply 0.937

-- ask normalized growth lookup needed for FC(F)(F)Oc1ccc(-c2noc(CSc3ccc(Br)cc3)n2)cc1 , thanks.
-- reply 0.978

-- ask normalized growth lookup needed for COC(=O)C1[C@H]2C[C@H]3c4[nH]c5ccccc5c4CCN3C[C@@H]2CC[C@@H]1O (stereo partly specified) , thanks.
-- reply 1.02

-- ask normalized growth lookup needed for CC1(C)/C(=N/OC(=O)c2cccc(C(F)(F)F)c2)[C@]2(C)CCC1C2 , thanks.
-- reply 0.979

-- ask normalized growth lookup needed for CCOC(=O)/C=C(\C)OP(=O)(OC)OC , thanks.
-- reply 0.983

-- ask normalized growth lookup needed for CC12CCC(C1)C(C)(C)C2NC(=O)c1cccs1 (stereo unspecified) , thanks.
-- reply 0.97

-- ask normalized growth lookup needed for CC(=O)O[C@]1(C(C)=O)CCC2C3C[C@H](C)C4=CC(=O)CC[C@]4(C)C3CC[C@@]21C (stereo partly specified) , thanks.
-- reply 0.99

-- ask normalized growth lookup needed for CC1(C)S[C@@H]2[C@H](NC(=O)[C@H](NC(=O)N3CCNC3=O)c3ccccc3)C(=O)N2C1C(=O)O (stereo partly specified) , thanks.
-- reply 1.01

-- ask normalized growth lookup needed for Cc1ccc2cc(C)c(C)cc2c1 , thanks.
-- reply 0.961

-- ask normalized growth lookup needed for CC(C)Oc1cccnc1N(C)C1CCN(Cc2ccccc2)CC1 , thanks.
-- reply 1.01

-- ask normalized growth lookup needed for O=C(O)C1CC([C@@H]2CCCCN2)CN2CCCCC12 (stereo partly specified) , thanks.
-- reply 1.03

-- ask normalized growth lookup needed for CCOC(=O)c1ncn2c1CN(C)C(=O)c1cc(F)ccc1-2 , thanks.
-- reply 1

-- ask normalized growth lookup needed for OCCN(CCO)c1nc(N2CCCCC2)c2nc(N(CCO)CCO)nc(N3CCCCC3)c2n1 , thanks.
-- reply 0.997

-- ask normalized growth lookup needed for CC(=O)OCc1ccc(/C=C(\C#N)S(=O)(=O)c2ccc(Cl)cc2)o1 , thanks.
-- reply 0.956

-- ask normalized growth lookup needed for CN1CCc2cc3c(cc2C1O)OCO3 (stereo unspecified) , thanks.
-- reply 0.976

-- ask normalized growth lookup needed for O=C(Nc1ccccc1C(=O)NC1CCCCNC1=O)c1cccs1 (stereo unspecified) , thanks.
-- reply 1.02

-- ask normalized growth lookup needed for CCCCCC(C)N (stereo unspecified) , thanks.
-- reply 1.02

-- ask normalized growth lookup needed for Cc1ccc(Oc2ccc(C)cc2)cc1 , thanks.
-- reply 1.01

-- ask normalized growth lookup needed for COc1ccc2c(c1)OC[C@@H](Cc1ccc(OC)c(OC)c1)[C@@H]2O , thanks.
-- reply 0.951

====

TEST_NAME: chemical genetic growth profiling, strain panel (AID 1159580);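 also: tested at 20 µM; growth read once vehicle control cultures reached saturation at 30 °C; 1 = growth at the plate median or of vehicle wells; lower values mean less growth of the strain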
REPORTED_CONDITIONS: S. cerevisiae deletion strains, growth OD, locus YJR075W, strain HOC1
Hit rate of the full screen: of about 5,500 compounds, about 2,000 (36%) were called active. Not shown: some 18% with an inconclusive outcome. Cut-off read from the data, not from the text of the source: active = normalized growth mostly below about 0.91 (no sharp cut-off); inconclusive = no clear call, values can overlap the other calls; inactive = mostly above about 0.92. Some of the results follow.
Pick one: active, inactive

-- ask Field: outcome | Entry: COc1ccc(-c2coc3c(OC)c(OC)cc(OC)c3c2=O)cc1
-- reply inactive

-- ask Field: outcome | Entry: CNc1ccccc1C(=O)N1CCc2c([nH]c3ccccc23)C1=O
-- reply inactive

-- ask Field: outcome | Entry: O=C(O)CSCC(=O)N1CCc2c([nH]c3ccccc23)C1C(F)(F)F (stereo unspecified)
-- reply inactive

-- ask Field: outcome | Entry: COc1cc(C(O)C(=O)O)ccc1O (stereo unspecified)
-- reply inactive

-- ask Field: outcome | Entry: O=C(O)C1C(O)CCC2CN3CCc4c([nH]c5ccccc45)C3CC21 (stereo unspecified)
-- reply inactive

-- ask Field: outcome | Entry: COc1ccc(C(=O)c2ccccc2)c(O)c1
-- reply active

====

TEST_NAME: chemical genetic growth profiling, strain panel (AID 1159580);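 also: tested at 20 µM; growth read once vehicle control cultures reached saturation at 30 °C; 1 = growth at the plate median or of vehicle wells; lower values mean less growth of the strain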
REPORTED_CONDITIONS: S. cerevisiae deletion strains, growth OD, locus YNL071W, strain lat1
Hit rate of the full screen: of about 5,500 compounds, about 2,000 (36%) were called active. Not shown: some 18% with an inconclusive outcome. Cut-off read from the data, not from the text of the source: active = normalized growth mostly below about 0.91 (no sharp cut-off); inconclusive = no clear call, values can overlap the other calls; inactive = mostly above about 0.92. Some of the results follow.
Pick one: class 1 (active), class 0 (inactive)

-- ask Field: outcome | Entry: O=C(O)C1CC([C@@H]2CCCCN2)CN2CCCCC12 (some centres not stated)
-- reply class 0

-- ask Field: outcome | Entry: COc1cccc([C@]2(O)CCCC[C@H]2CN(C)C)c1
-- reply class 0

-- ask Field: outcome | Entry: OCc1ccccc1O[C@@H]1O[C@H](CO)[C@@H](O)[C@H](O)[C@H]1O
-- reply class 0

-- ask Field: outcome | Entry: NC(N)=Nc1nc(CSCCC(N)=NS(N)(=O)=O)cs1
-- reply class 0

-- ask Field: outcome | Entry: COc1cc2c(cc1OC)C(=O)C(CC1CCN(Cc3ccccc3)CC1)C2 (configuration not stated)
-- reply class 0

-- ask Field: outcome | Entry: C1CCc2nnnn2CC1
-- reply class 0

-- ask Field: outcome | Entry: NC(N)=NOCC[C@H](N)C(=O)O
-- reply class 0

-- ask Field: outcome | Entry: COc1ccc(C2CC(=O)c3ccc(OC)cc3O2)cc1 (configuration not stated)
-- reply class 1

-- ask Field: outcome | Entry: CCCCCCCCCCCCCCCCOP(=O)([O-])OCC[N+](C)(C)C
-- reply class 1

-- ask Field: outcome | Entry: CN1CCc2cc3c(cc2C1O)OCO3 (configuration not stated)
-- reply class 0

-- ask Field: outcome | Entry: CCCCOc1ccc(CC(=O)NO)cc1
-- reply class 0

-- ask Field: outcome | Entry: O=C1CC(c2ccc(O)c(O)c2)Oc2cc(O)cc(O)c21 (configuration not stated)
-- reply class 0

-- ask Field: outcome | Entry: O=C(Cc1ccccc1)NO
-- reply class 0

-- ask Field: outcome | Entry: CCN(CC)C(=S)SSC(=S)N(CC)CC
-- reply class 1

-- ask Field: outcome | Entry: CC(=O)O[C@H]1C(=O)[C@@]2(C)C([C@H](OC(=O)c3ccccc3)[C@]3(O)C[C@H](OC(=O)[C@H](O)[C@@H](NC(=O)c4ccccc4)c4ccccc4)C(C)=C1C3(C)C)[C@]1(OC(C)=O)CO[C@@H]1C[C@@H]2O (some centres not stated)
-- reply class 0

-- ask Field: outcome | Entry: CCCCCCCC/C=C/CCCCCCCCOP(=O)([O-])OCC[N+](C)(C)C
-- reply class 1

-- ask Field: outcome | Entry: C[C@@H]1O[C@@H](O[C@H]2[C@@H](Oc3cc(O)c4c(c3)O[C@H](c3ccc(O)cc3)CC4=O)O[C@H](CO)[C@@H](O)[C@@H]2O)[C@H](O)[C@H](O)[C@H]1O
-- reply class 0

-- ask Field: outcome | Entry: COc1ccc([C@@H]2CC(=O)c3c(O)cc(O)cc3O2)cc1O
-- reply class 0

-- ask Field: outcome | Entry: CC(=O)OC1CC23CC24CCC(OC2OCC(O)C(O)C2O)C(C)(C)C4CCC3C2(C)CC3OC4(CC(C)C3C12C)OC(O)C1(C)OC41 (configuration not stated)
-- reply class 0

-- ask Field: outcome | Entry: O=c1ccc2ccccc2o1
-- reply class 0

-- ask Field: outcome | Entry: COc1ccc(C(=O)c2ccccc2)c(O)c1
-- reply class 1

-- ask Field: outcome | Entry: CC(C(=O)O)c1ccc2c(c1)[nH]c1ccc(Cl)cc12 (configuration not stated)
-- reply class 0
